study.target: UniProt P10635
Sequence (P10635 whole entry): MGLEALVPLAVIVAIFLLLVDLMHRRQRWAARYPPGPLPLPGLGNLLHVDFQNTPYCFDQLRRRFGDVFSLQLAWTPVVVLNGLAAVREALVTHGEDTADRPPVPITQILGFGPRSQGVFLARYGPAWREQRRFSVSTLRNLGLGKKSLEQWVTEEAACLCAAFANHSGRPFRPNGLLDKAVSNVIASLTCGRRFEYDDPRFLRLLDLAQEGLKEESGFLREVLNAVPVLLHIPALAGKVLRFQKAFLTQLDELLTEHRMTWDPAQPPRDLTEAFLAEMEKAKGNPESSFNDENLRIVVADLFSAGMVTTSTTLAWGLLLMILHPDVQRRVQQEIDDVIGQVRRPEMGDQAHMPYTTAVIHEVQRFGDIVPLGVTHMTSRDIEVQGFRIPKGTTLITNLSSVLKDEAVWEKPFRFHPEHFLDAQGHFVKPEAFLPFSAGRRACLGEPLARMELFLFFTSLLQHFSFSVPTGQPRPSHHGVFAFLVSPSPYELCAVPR
outcome.measure: IC50 (nM)
Entry rule: numbers only, all in nM.

Item: COc1ccc2c(c1)[C@]13CCCC[C@@H]1[C@H](C2)N(C)CC3 [Dextromethorphan] Test system: UniProt P10635 Read-out: IC50 Value: ?
39.7

---

CC50 at 5 days listing for selected compounds.
experiment: Cytotoxicity in uninfected
assay.conditions: human, mock-infected (uninfected) MT-4 cells, CC50, uninfected MT-4 cells, MTT

Answered cases to consult:
>>> result("N#Cc1ccc(Nc2ncc(CO)c(Oc3c(F)cc(-c4ccncc4)cc3F)n2)cc1 [9l]")
"128 µM"
>>> result("N#Cc1ccc(Nc2ncc(CO)c(Oc3ccc(-c4ccc(C#N)cc4)cc3F)n2)cc1 [9d]")
"> 45.8 µM"
>>> result("Cc1cc(-c2ccncc2)cc(C)c1Oc1nc(Nc2ccc(C#N)cc2)ncc1CO [9h]")
"221 µM"
>>> result("Cc1cc(C#N)cc(C)c1Oc1nc(Nc2ccc(C#N)cc2)nc(N)c1Br [ETR, etravirine, reference compound]")
"> 4.6 µM"
>>> result("COc1cc(-c2ccc(C#N)cc2)ccc1Oc1nc(Nc2ccc(C#N)cc2)ncc1CO [9c]")
"258 µM"

Fill blank: measured CC50 at 5 days of the compound COc1cc(-c2ccncc2)ccc1Oc1nc(Nc2ccc(C#N)cc2)ncc1CO [9i] is ____.
30.5 µM

Which CC50 at 5 days value belongs to Cc1cc(-c2ccc(C#N)cc2)cc(C)c1Oc1nc(Nc2ccc(C#N)cc2)ncc1CO [9a] ?
15.6 µM

Look up CC50 at 5 days for this compound: Cc1cc(-c2ccc(C#N)cc2)ccc1Oc1nc(Nc2ccc(C#N)cc2)ncc1CO [9b]
> 46.2 µM

Given the compound Cc1ccnc2c1NC(=O)c1cccnc1N2C1CC1 [NVP, nevirapine, reference compound] , what is its reported CC50 at 5 days?
> 15 µM

---

experiment: Liver microsomal stability, human
Assay type: in vitro ADME
assay.conditions: human, human liver microsomes, Clint(hep)
outcome.measure: CLint scaled (L/h/kg)
Hi! Could you send only the number? It should be in L/h/kg, unit omitted.

Looking for the measured CLint scaled of N#Cc1ccc(Nc2ncc(CO)c(Oc3c(F)cc(-c4ccc(C#N)cc4)cc3F)n2)cc1 [9g] , can you help?
3.37

---

Tested on: MT-4 cells
experiment: Cytotoxicity in uninfected
assay.conditions: uninfected MT-4 cells, MTT
outcome.measure: CC50 (µM)
Quick note: give the figure in µM, leave out the unit.

Entry N#Cc1ccc(Nc2ncc(CO)c(Oc3c(F)cc(-c4ccc(C#N)cc4)cc3F)n2)cc1 : reported CC50 = ?
225

---

experiment: In vivo pharmacokinetics in Sprague-Dawley rats
assay.conditions: male, rat, plasma, po, 10 mg/kg
outcome.measure: bioavailability (%)
Report the value in % with no unit label.

// lookup bioavailability for N#Cc1ccc(Nc2ncc(CO)c(Oc3c(F)cc(-c4ccc(C#N)cc4)cc3F)n2)cc1 [9g]
8.01

---

Reported pEC50 values are given for each entry in this list.
Tested on: HIV-1 mutant K103N
experiment: microbe, parasite or virus in culture
assay.conditions: Human immunodeficiency virus 1, MT4, read-out: EC50 K103N
Give only the number. pEC50 is defined as minus log10 of concentration in molar units.

Solved entries:
>>> measured_number("N#Cc1ccc(Nc2ncc(CO)c(Oc3c(F)cc(-c4ccncc4)cc3F)n2)cc1 [9l]")
8.52
>>> measured_number("N#Cc1ccc(Nc2ncc(CO)c(Oc3ccc(-c4cccnc4)cc3F)n2)cc1 [9m]")
5.77
>>> measured_number("Cc1cc(C#N)cc(C)c1Oc1nc(Nc2ccc(C#N)cc2)nc(N)c1Br [ETR, etravirine, reference compound]")
8.52
>>> measured_number("COc1cc(-c2ccc(C#N)cc2)ccc1Oc1nc(Nc2ccc(C#N)cc2)ncc1CO [9c]")
8.19
>>> measured_number("O=C1Nc2ccc(Cl)cc2[C@@](C#CC2CC2)(C(F)(F)F)O1 [EFV, efavirenz, reference compound]")
6.99

For the compound shown here, N#Cc1ccc(Nc2ncc(CO)c(Oc3ccc(-c4ccncc4)cc3F)n2)cc1 [9j] , give the reported pEC50.
7.45

Quick one: pEC50 of N#Cc1ccc(Nc2ncc(CO)c(Oc3ccc(-c4ccc(C#N)cc4)cc3Cl)n2)cc1 [9e] ?
8.42

// query pEC50 value for entry N#Cc1ccc(Nc2ncc(CO)c(Oc3ccc(-c4ccc(C#N)cc4)cc3C(F)(F)F)n2)cc1 [9f]
8.49

pEC50 for Cc1cc(-c2ccc(C#N)cc2)ccc1Oc1nc(Nc2ccc(C#N)cc2)ncc1CO [9b] ?
8.54

Record request: pEC50 value, item Cc1cc(-c2ccc(C#N)cc2)cc(C)c1Oc1nc(Nc2ccc(C#N)cc2)ncc1CO [9a]
8.49

Item under review: N#Cc1ccc(Nc2ncc(CO)c(Oc3c(F)cc(-c4ccc(C#N)cc4)cc3F)n2)cc1 [9g] . Reported pEC50?
8.72

---

experiment: Liver microsomal stability, monkey
Format: in vitro ADME
assay.conditions: monkey liver microsomes
outcome.measure: half-life (min)
Quick note: give the figure in min, leave out the unit.

State the recorded half-life for this entry: N#Cc1ccc(Nc2ncc(CO)c(Oc3c(F)cc(-c4ccc(C#N)cc4)cc3F)n2)cc1
26.1

---

experiment: In vivo pharmacokinetics in Sprague-Dawley rats
assay.conditions: male, rat, plasma, iv, 1 mg/kg, AUC0‒t, 1.0 mg/kg i.v.
outcome.measure: AUC (ng·h/mL)
State the answer as a number, implicitly in ng·h/mL.

Which measured AUC value corresponds to N#Cc1ccc(Nc2ncc(CO)c(Oc3c(F)cc(-c4ccc(C#N)cc4)cc3F)n2)cc1 ?
244

---

experiment: Liver microsomal stability, dog
Assay type: in vitro ADME
assay.conditions: dog liver microsomes, Clint(mic), dog liver microsome
outcome.measure: CLint scaled
Write the numeric value and follow it with the unit.

What does the data say about its CLint scaled? Entry: N#Cc1ccc(Nc2ncc(CO)c(Oc3c(F)cc(-c4ccc(C#N)cc4)cc3F)n2)cc1 [9g]
29.5 mL/min/kg

---

experiment: Liver microsomal stability, dog
Format: in vitro ADME
assay.conditions: dog liver microsomes
outcome.measure: half-life (h)
Quick reminder: number only, in h, skip the unit.

May I ask what half-life has been recorded for N#Cc1ccc(Nc2ncc(CO)c(Oc3c(F)cc(-c4ccc(C#N)cc4)cc3F)n2)cc1 ?
1.19

---

Catalogue of CC50 at 5 days readings, one per entry.
experiment: Cytotoxicity in uninfected
assay.conditions: human, mock-infected (uninfected) MT-4 cells, CC50, uninfected MT-4 cells, MTT
Could you give me the number in µM? Just the number is fine.

>>> measured_number("N#Cc1ccc(Nc2ncc(CO)c(Oc3c(F)cc(-c4ccc(C#N)cc4)cc3F)n2)cc1")
264

So what does the record say about CC50 at 5 days for N#Cc1ccc(Nc2ncc(CO)c(Oc3ccc(-c4cccnc4)cc3F)n2)cc1 ?
178

---

experiment: In vivo pharmacokinetics in Sprague-Dawley rats
assay.conditions: male, rat, plasma, po, 10 mg/kg, AUC0‒∞, 10.0 mg/kg p.o.
outcome.measure: AUC (ng·h/mL)
API: value field is a number in ng·h/mL; no unit string.

Using the record for N#Cc1ccc(Nc2ncc(CO)c(Oc3c(F)cc(-c4ccc(C#N)cc4)cc3F)n2)cc1 , report its AUC.
198

---

study.target: WT HIV-1 RT (Human immunodeficiency virus type 1 group M subtype B, UniProt P03366)
Decision: IC50 beneath 30 nM gives Condition met; IC50 meeting or exceeding 30 nM gives Condition not met.

Sample answers from the record:
>>> assigned_label("Cc1cc(-c2ccc(C#N)cc2)cc(C)c1Oc1nc(Nc2ccc(C#N)cc2)ncc1CO [9a]")
"Condition not met"
>>> assigned_label("N#Cc1ccc(Nc2ncc(CO)c(Oc3ccc(-c4ccc(C#N)cc4)cc3C(F)(F)F)n2)cc1 [9f]")
"Condition met"
>>> assigned_label("COc1cc(-c2ccc(C#N)cc2)ccc1Oc1nc(Nc2ccc(C#N)cc2)ncc1CO [9c]")
"Condition met"
>>> assigned_label("N#Cc1ccc(Nc2ncc(CO)c(Oc3ccc(-c4ccc(C#N)cc4)cc3Cl)n2)cc1 [9e]")
"Condition met"
>>> assigned_label("N#Cc1ccc(Nc2ncc(CO)c(Oc3c(F)cc(-c4ccc(C#N)cc4)cc3F)n2)cc1 [9g]")
"Condition met"

A record lists N#Cc1ccc(Nc2ncc(CO)c(Oc3ccc(-c4ccc(C#N)cc4)cc3F)n2)cc1 [9d] . Is its IC50 below 30 nM?
Condition not met

Decide: IC50 of Cc1cc(-c2ccc(C#N)cc2)ccc1Oc1nc(Nc2ccc(C#N)cc2)ncc1CO [9b] strictly below 30 nM?
Condition met

---

Tested on: HIV-1 mutant Y188L
experiment: microbe, parasite or virus in culture
assay.conditions: Human immunodeficiency virus 1, MT4, read-out: EC50 Y188L
pEC50: −log10 of the molar value.
Kindly return t if reported pEC50 is no lower than 6; return f if it is lower.

Completed entries (count: 2):
>>> assigned_label("Cc1ccnc2c1NC(=O)c1cccnc1N2C1CC1 [NVP, nevirapine, reference compound]")
"f"
>>> assigned_label("Cc1cc(-c2ccc(C#N)cc2)cc(C)c1Oc1nc(Nc2ccc(C#N)cc2)ncc1CO")
"t"

Entry N#Cc1ccc(Nc2ncc(CO)c(Oc3c(F)cc(-c4ccc(C#N)cc4)cc3F)n2)cc1 : is its pEC50 no less than 6?
t

Determine whether measured pEC50 meets or exceeds 6 for N#Cc1ccc(Nc2ncc(CO)c(Oc3ccc(-c4ccc(C#N)cc4)cc3Cl)n2)cc1
t

Could you tell me if the measured pEC50 of COc1cc(-c2ccncc2)ccc1Oc1nc(Nc2ccc(C#N)cc2)ncc1CO reaches 6 or more?
f

pEC50 >= 6 for O=C1Nc2ccc(Cl)cc2[C@@](C#CC2CC2)(C(F)(F)F)O1 [EFV, efavirenz, reference compound] ?
t
